# protocol-text: acute toxicity, LD 50, CD 1 mice
# Assay type: in vivo
# protocol-conditions: mouse, in vivo, oral, read-out: Acute toxicity for mice LD 50, orally
Where a name gives a salt, the structure may show the parent alone.
Each entry below carries its recorded LD50.

molecule	LD50
CSc1c(Cl)nc(N(C)C(C)=O)nc1N1CCN(C)CC1 [Example 16, hydrochloride]	~525 mg/kg
CCOCCOc1nc(NC)nc(N2CCN(C)CC2)c1SC [Example 20, hydrochloride]	~265 mg/kg
CC(=O)Nc1nc(Cl)c(C)c(N2CCN(C)CC2)n1	~270 mg/kg
CSc1c(Cl)nc(NCc2ccccc2)nc1N1CCN(C)CC1	~525 mg/kg
CCNc1nc(Cl)c(SC)c(N2CCN(C)CC2)n1 [Example 1, hydrochloride]	~200 mg/kg
CCN(CC)c1nc(Cl)c(SC)c(N2CCN(C)CC2)n1 [Example 15, dihydrobromide]	~600 mg/kg
COc1ccc(Nc2nc(Cl)c(SC)c(N3CCN(C)CC3)n2)cc1	~495 mg/kg
CNc1nc(Cl)c(SC)c(N2CCN(CCO)CC2)n1	~525 mg/kg
CSc1c(Cl)nc(NCCO)nc1N1CCN(C)CC1	~600 mg/kg
CSc1c(Cl)nc(N2CCN(C)CC2)nc1N1CCN(C)CC1 [Example 9, hydrochloride]	~675 mg/kg
CCCCNc1nc(Cl)c(SC)c(N2CCN(C)CC2)n1	~225 mg/kg
CSc1c(Cl)nc(NC(C)C)nc1N1CCN(C)CC1	~525 mg/kg
CNc1nc(OC)c(SC)c(N2CCN(C)CC2)n1 [Example 17, hydrochloride]	~400 mg/kg
CSc1c(Cl)nc(N(C)C(=O)c2ccccc2)nc1N1CCN(C)CC1 [Example 13, hydrochloride]	~600 mg/kg
CSc1c(Cl)nc(N2CCCCC2)nc1N1CCN(C)CC1 [Example 11, hydrochloride]	~525 mg/kg
CCCOc1nc(NC)nc(N2CCN(C)CC2)c1SC [Example 18, hydrochloride]	~525 mg/kg
CSc1c(Cl)nc(N)nc1N1CCN(C)CC1 [Example 6, hydrochloride]	~225 mg/kg
C=CCOc1nc(NC)nc(N2CCN(C)CC2)c1SC [Example 19, hydrochloride]	~400 mg/kg
CCCCCNc1nc(Cl)c(SC)c(N2CCN(C)CC2)n1	~600 mg/kg
CSc1c(Cl)nc(N2CCOCC2)nc1N1CCN(C)CC1	~400 mg/kg
CNc1nc(Cl)c(SC)c(N2CCNCC2)n1 [Example 10, hydrochloride]	~225 mg/kg
CSc1c(Cl)nc(Nc2ccccc2)nc1N1CCN(C)CC1 [Example 4, hydrochloride]	~600 mg/kg
CCCNc1nc(Cl)c(SC)c(N2CCN(C)CC2)n1	~200 mg/kg
COCCCNc1nc(Cl)c(SC)c(N2CCN(C)CC2)n1	~200 mg/kg
C=CCNc1nc(Cl)c(SC)c(N2CCN(C)CC2)n1	~200 mg/kg
CSc1c(Cl)nc(N(C)c2ccccc2)nc1N1CCN(C)CC1 [Example 12, hydrochloride]	~525 mg/kg
CCCCN1CCN(c2nc(N3CCOCC3)nc(Cl)c2SC)CC1	~600 mg/kg
CSc1c(Cl)nc(NC(C)(C)C)nc1N1CCN(C)CC1	~600 mg/kg

---

# protocol-text: solubility
# Format: physicochemical
# protocol-conditions: water
Structures can show the parent of a compound that is named as a salt.

compound	solubility in water
CCCNc1nc(Cl)c(SC)c(N2CCN(C)CC2)n1	insoluble
COc1ccc(Nc2nc(Cl)c(SC)c(N3CCN(C)CC3)n2)cc1	insoluble
CCCCNc1nc(Cl)c(SC)c(N2CCN(C)CC2)n1	insoluble
CCCCCCNc1nc(Cl)c(SC)c(N2CCN(C)CC2)n1	insoluble
CCCCN1CCN(c2nc(N(C)Cc3ccccc3)nc(Cl)c2SC)CC1 [Example 27, hydrochloride]	insoluble
CCCCCNc1nc(Cl)c(SC)c(N2CCN(C)CC2)n1	insoluble
CCCCN1CCN(c2nc(N3CCOCC3)nc(Cl)c2SC)CC1	insoluble
CSc1c(Cl)nc(NCCO)nc1N1CCN(C)CC1	insoluble
CSc1c(Cl)nc(NC2CCCCC2)nc1N1CCN(C)CC1	insoluble
CSc1c(Cl)nc(N2CCOCC2)nc1N1CCN(C)CC1	insoluble
